Exercise: for every item that follows, state its recorded growth.
- System: Escherichia coli IAI1
- Experiment Summary: growth (OD595) fold change vs plate DMSO controls (fold change (ratio)); higher = more growth
- Condition Set: incubation time: 27 h, anaerobic, 37 °C
Counter-ions that a name gives are not always drawn.
Give bare numbers.

Some entries whose results are on file:
- Compound: "CCCC(=O)Nc1ccc(OCC(O)CNC(C)C)c(C(C)=O)c1 (stereo not given) [Acebutolol hydrochloride] (20 µM)"
  Subject Of Test: "Escherichia coli IAI1"
  growth: 0.989
- Compound: "Nc1cc(C(Cl)=C(Cl)Cl)c(S(N)(=O)=O)cc1S(N)(=O)=O [Clorsulon] (20 µM)"
  Subject Of Test: "Escherichia coli IAI1"
  growth: 0.963
- Compound: "CCC(=O)O[C@]1(C(=O)SCF)[C@H](C)C[C@H]2[C@@H]3C[C@H](F)C4=CC(=O)C=C[C@]4(C)[C@@]3(F)[C@@H](O)C[C@@]21C [Fluticasone propionate] (20 µM)"
  Subject Of Test: "Escherichia coli IAI1"
  growth: 0.976
- Compound: "Cc1nc2ccccn2c(=O)c1CCN1CCC(C(=O)c2ccc(F)cc2)CC1 [Pirenperone] (20 µM)"
  Subject Of Test: "Escherichia coli IAI1"
  growth: 1.01
- Compound: "CN(CCCN1c2ccccc2CCc2ccccc21)CC(=O)c1ccc(Cl)cc1 [Lofepramine] (20 µM)"
  Subject Of Test: "Escherichia coli IAI1"
  growth: 0.937
- Compound: "OC[C@H]1O[C@@H](n2cnc3cncnc32)[C@H](O)[C@@H]1O [Nebularine] (20 µM)"
  Subject Of Test: "Escherichia coli IAI1"
  growth: 0.971
- Compound: "C#CCN(C)CCCOc1ccc(Cl)cc1Cl [Clorgyline hydrochloride] (20 µM)"
  Subject Of Test: "Escherichia coli IAI1"
  growth: 0.993
- Compound: "CC(=O)[C@@]1(O)CC[C@H]2[C@@H]3C[C@H](C)C4=CC(=O)C=C[C@]4(C)[C@@]3(F)[C@@H](O)C[C@@]21C [Fluorometholone] (20 µM)"
  Subject Of Test: "Escherichia coli IAI1"
  growth: 0.986
- Compound: "O=C1[C@H](CC[C@H](O)c2ccc(F)cc2)[C@@H](c2ccc(O)cc2)N1c1ccc(F)cc1 [Ezetimibe] (20 µM)"
  Subject Of Test: "Escherichia coli IAI1"
  growth: 1.1
- Compound: "CCNC(=O)CCC/C=C\\C[C@@H]1[C@@H](/C=C/[C@@H](O)CCc2ccccc2)[C@H](O)C[C@@H]1O [Bimatoprost] (20 µM)"
  Subject Of Test: "Escherichia coli IAI1"
  growth: 1.06

Kindly give each listed record's growth.
1. OCC(O)CN1CCN(c2ccccc2)CC1 (stereo not given) [Dropropizine] (20 µM)
2. Cc1c(C)c2c(c(C)c1O)CCC(C)(COc1ccc(CC3SC(=O)NC3=O)cc1)O2 (stereo not given) [Troglitazone] (20 µM)
3. CN1Cc2c(N)cccc2C(c2ccccc2)C1 (stereo not given) [Nomifensine maleate] (20 µM)
4. O=C(c1ccccc1)c1ccc2n1CCC2C(=O)O (stereo not given) [Ketorolac tromethamine] (20 µM)
5. CCOc1ccc2c(c1)C(C)=CC(C)(C)N2 [Ethoxyquin] (20 µM)

Result string:
[1.02, 0.981, 0.982, 1.04, 1]
